Exercise: state measured inhibition for each of the molecules provided.
Molecular target: Solute carrier family 2, facilitated glucose transporter member 1 (Homo sapiens) (UniProt P11166)
Sequence (P11166 whole entry): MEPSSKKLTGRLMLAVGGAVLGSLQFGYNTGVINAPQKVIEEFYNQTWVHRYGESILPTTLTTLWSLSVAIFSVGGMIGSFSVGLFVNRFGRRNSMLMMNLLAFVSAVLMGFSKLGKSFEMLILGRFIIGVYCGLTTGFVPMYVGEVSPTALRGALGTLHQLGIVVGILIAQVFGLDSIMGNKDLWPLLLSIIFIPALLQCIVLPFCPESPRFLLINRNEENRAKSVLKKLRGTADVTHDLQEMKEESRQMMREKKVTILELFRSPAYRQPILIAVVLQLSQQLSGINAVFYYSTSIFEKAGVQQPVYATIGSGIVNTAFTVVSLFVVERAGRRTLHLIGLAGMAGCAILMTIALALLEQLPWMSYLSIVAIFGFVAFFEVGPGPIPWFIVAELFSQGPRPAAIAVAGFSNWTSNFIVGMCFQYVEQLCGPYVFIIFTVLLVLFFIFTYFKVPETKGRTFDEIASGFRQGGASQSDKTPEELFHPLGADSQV
Experiment: ST_JUDE_LEISH: Cytotoxicity at 2uM final concentration against transgenic Leishmania Mexicana promastigotes LmGLUT1 that are glucose transport deficient and complemented with the human glucose transporter GLUT1. Activity is measured by DNA content using SYBR green in vitro
Assay type: functional
Unit % implied. Number only.

Measured inhibition of CCCCNCc1ccc(-c2nc(CN(Cc3ccc(Cl)c(Cl)c3)S(=O)(=O)c3ccc(NC(C)=O)cc3)cs2)cc1 : 2.51

Measured inhibition of CCn1c(-c2nonc2N)nc2cnc(Oc3cccc(NC(=O)c4ccc(OCCCN5CCCCC5)cc4)c3)cc21 : 16.4

Measured inhibition of CC(C)NCc1ccc(-c2ccc(CN3CCCC(c4ccccc4)C3)cc2)c(C(=O)NCC2CCCCC2)c1 (centres undefined) : -0.28

Measured inhibition of CCN(CC)CCN(Cc1ccc(-c2ccc(C(F)(F)F)cc2)cc1)C(=O)Cn1c(CCc2ccc(F)cc2)nc(=O)c2sccc21 : 2.57

Measured inhibition of COc1ccc(C2N=C(N)N=C(N)N2c2ccc(Cl)cc2)cc1OC (centres undefined) : 2.61

Measured inhibition of O=C(NCc1cccc(OC(F)(F)F)c1)c1cnc2c(c1)nc(-c1c[nH]c(-c3ccccc3)n1)n2CCc1c[nH]cn1 : 2.3

Measured inhibition of Cc1onc(-c2ccccc2)c1-c1nc(NCc2ccccc2Cl)no1 : 2.36

Measured inhibition of Cc1ccc(F)cc1-c1cc(N2CCCN(C(=O)c3ccc(Br)o3)CC2)ncn1 : 0.81

Measured inhibition of O=S(=O)(NCCN1CCCC1)c1cccc(-c2ccc(CNCc3ccsc3)cc2)c1 : 2.71

Measured inhibition of Cc1nc(C)c(C2CCC(c3ccc(Cl)cc3)CC2)c(O)c1Cl (centres undefined) : 5.98

Measured inhibition of O=C(Nc1cccc(CN2CCCN(Cc3ccc4c(c3)OCO4)CC2)c1)c1ccc(-c2ccccc2)cc1 : 4.21

Measured inhibition of CSc1ccc2ccccc2c1CNCCCCCCNCc1c(SC)ccc2ccccc12 : 1.24

Measured inhibition of COc1ccc(C(=O)Nc2nonc2-c2ccc(OC)c(OC)c2)cc1Cl : -0.82

Measured inhibition of COc1ccc2nccc([C@@H](O)CN3CCC(NCc4ccc5cccc(O)c5n4)CC3)c2c1 : 7.73

Measured inhibition of Cc1ccc(C(=O)NC2CC2)cc1-c1ccc2c(cnn2S(=O)(=O)c2ccc(F)cc2)c1 : 3.39

Measured inhibition of Cc1cc(NCCC(=O)Nc2ccccc2)nc(NCCc2cccs2)n1 : 4.03

Measured inhibition of Cc1cc(Nc2cccc(C(F)(F)F)c2)nc(Nc2cccc(C(F)(F)F)c2)n1 : 4.73

Measured inhibition of Cn1cnc(CCNC(=O)c2ccc(-c3ccc(-c4nc5cc(F)ccc5[nH]4)cc3)cc2)c1 : 5.05

Measured inhibition of CC1(C)NC(N)=NC(=N)N1OCCSc1ccccc1 : 2.9
